Value source: PubChem BioAssay

Record form. Attribute: inhibition. Fill in for each entry.
Experiment: inhibitors of the yeast RAM network, pilot screen, dse1pr::URA3 reporter, 5-FOA selection (AID 869);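 note: 0% = DMSO wells with no growth and 100% = 10 µM 1-NA-PP1 with full growth; RAM network block rescues cells from 5-FOA so hits raise OD615 growth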
Conditions: S. cerevisiae dse1pr::URA3 5-FOA growth, OD615, 2 d; at 10 µM; stronger effect = higher value; strain carries analog-sensitive mutant Cbk1 kinase
Value expressed in %; do not type the unit.

The compound identified as CC1CCN(CCCn2c(=S)[nH]c3ccccc3c2=O)CC1 registered its inhibition at 1.1

inhibition recorded for this compound, CCOC(=O)c1ccc(NC(=O)NCCN2CCCCC2)cc1 , is 1.49

# inhibition (compound: CCC/C(O)=C1\C(=O)CC(C)(C)CC1=NCCO ) is 2.65

The compound identified as COCC(C)NC(=O)NC1(C(F)(F)F)Oc2ccc(Cl)cc2O1 (stereo unspecified) registered its inhibition at 0.985

Given item Cn1c(=O)c2c(nc(-n3ccnc3)n2Cc2ccc(Cl)cc2Cl)n(C)c1=O , the value recorded as its inhibition is 1.17

Lab book: inhibition of CCN1C(=O)c2ccc(-c3nc4ccccc4c(=O)o3)cc2C1=O noted as 1.71

* * *

Experiment: growth suppression of PTEN-deleted HCT116, pilot screen, cell-based, HCT116 clonal line, CellTiter-Glo (AID 824);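 note: 0% = 20 µM Hyamine control and 100% = vehicle cell control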
Conditions: 60 h, at 10 µM, stronger effect = lower value
Inconclusive results are not listed.
One threshold, 90%, splits the recorded viability values: lower ones are label 1, equal or higher ones are label 0.

Field: below-cutoff. Rule: recorded viability strictly less than 90%. Subject: Nc1cc(C(=O)c2cccs2)ccc1Cl
label 0

Bench note: check whether Cn1c(C(=O)NC2CCCCC2)cc2c(=O)n(C)c3ccccc3c21 shows viability below 90%
label 1

is_below(viability, 90%) for O=C(Nc1sc2c(c1C(=O)NCC1CCCO1)CCCC2)c1cccs1 (stereo unspecified) ?
label 1

State whether 90% exceeds viability recorded for COCCN1C(=O)c2oc3ccccc3c(=O)c2C1c1cccc(O)c1 (stereo unspecified) .
label 0

In the record for Cc1ccc(C(=O)N2CCN(C3CCCCC3)CC2)s1 , is viability less than 90%?
label 0

Is viability of COC(=O)c1ccc(C2c3c(oc4ccccc4c3=O)C(=O)N2CCCN2CCOCC2)cc1 (stereo unspecified) strictly below 90%?
label 1

Report whether reported viability is lower than 90% (strictly) for CCN(CC)c1ccc(NS(=O)(=O)c2ccc3c(c2)oc(=O)n3C)c(C)c1
label 1

Please let me know if c1ccc2c(c1)CCN(c1nc3ccccc3n3cnnc13)C2 shows viability below 90%.
label 1

Does C=CCSc1nc2c(c(=O)[nH]c(=O)n2C)n1Cc1ccc(C)cc1 have viability strictly under 90%?
label 1

Report whether reported viability is lower than 90% (strictly) for CCC(=O)c1ccc(OCC(=O)Nc2nn3cnnc3s2)cc1
label 0

viability strictly < 90% for this compound? Cn1c(NC(=O)C2CCCO2)cc(=O)n(C)c1=O (stereo unspecified)
label 0

Is it true that viability reported for O=C(C1CCN(S(=O)(=O)c2cccc3cccnc23)CC1)N1CCN(c2ccc(Cl)cc2)CC1 is less than 90%?
label 1

Is viability strictly under 90% for the entry CC1CCCCN1C(=O)c1ccccc1NC(=O)c1ccco1 (stereo unspecified) ?
label 0

Is 90% strictly greater than the compound's reported viability? compound: CCOC(=O)Cc1csc(NC(=O)COc2ccc(N(C)S(=O)(=O)c3cccs3)cc2)n1
label 1

Report whether reported viability is lower than 90% (strictly) for CC1=Nc2ccc(C)cc2N(Cc2ccccc2)C(=O)C1
label 0

Answer whether the compound O=C(NCc1ccccc1Cl)c1cnc2n(c1=O)CCS2 has viability strictly less than 90%
label 0

Here's an entry: CCC/C(O)=C1\C(=O)CC(C)(C)CC1=Nc1ccccc1OC . Is its viability below 90%?
label 1

Could you please tell me whether viability recorded for CCOC(=O)c1cnc2c(C)cccc2c1NCc1ccco1 is less than 90%?
label 1

Just wondering, is viability of COC(=O)C1C(=O)c2c([nH]c(C(=O)OC3CCCCC3)c2C)CC1C (stereo unspecified) below 90%?
label 0

Lab log: compare recorded viability with 90%; is it strictly lower for COc1ccc(C(=O)NCC(c2cccnc2)N2CCN(c3ccc(F)cc3)CC2)cc1OC (stereo unspecified) ?
label 1

Lab log: compare recorded viability with 90%; is it strictly lower for COc1ccc(NC(=O)c2ccc3c(c2)n(C)c(=O)n3C)cc1 ?
label 1

Is 90% strictly greater than the compound's reported viability? compound: CC(/C=C/c1ccccc1)=N/O
label 0

Quick check: does O=C(CN1CCOc2ccccc21)NCc1ccc(Cl)cc1 have viability under 90%?
label 1

Would you kindly verify if viability of Cn1c(SCCSc2nnc(-c3ccccc3)n2C)nnc1-c1ccccc1 is strictly less than 90%?
label 0

API: query returns whether the compound falls strictly under 90% in viability. Query: COCCCNC(=O)CN1C(=O)CSc2ncccc21
label 0

# strict comparison: is reported viability < 90%? input = COc1ccc(C2CC(c3cccc(C)c3)n3nc(N)nc3N2)cc1 (stereo unspecified)
label 0

Is viability strictly under 90% for the entry COCCCN(C(=O)Cn1ncc2c(=O)oc3ccc(C)cc3c21)C(C)c1ccncc1 (stereo unspecified) ?
label 0

# TODO verify viability < 90% strictly for this compound: CCCCCn1c(SCc2cccc(C)c2)nc2c1c(=O)[nH]c(=O)n2C
label 1

Find out if reported viability for COC(=O)c1nc2cc(C)ccn2c1F is less than 90%
label 0

Could you please tell me whether viability recorded for COc1ccc(Cl)cc1S(=O)(=O)N1CCN(C)CC1 is less than 90%?
label 1

Given COc1ccc(N2Cc3cccc(C(=O)NC(C)CCc4ccco4)c3C2=O)cc1 (stereo unspecified) , is recorded viability strictly lower than 90%?
label 0

Is the reported viability for O=C(O)CC(C(=O)NC1CCCCC1)C1CCCO1 (stereo unspecified) strictly below 90%?
label 0

Does the reported viability of the following compound sit strictly below 90%? O=C(O)c1cc(S(=O)(=O)N2CCCCCC2)c(Cl)cc1Cl
label 0

Just wondering, is viability of Cc1ccc(Cl)cc1N1CCN(C(=O)C2CCN(c3nnc(-n4cccc4)s3)CC2)CC1 below 90%?
label 1

Just wondering, is viability of O=C1CC(C(=O)Nc2nccs2)C(c2ccccc2)O1 (stereo unspecified) below 90%?
label 0

viability strictly < 90% for this compound? CCOC(=O)N1CCC(N2CC34C=CC(O3)C(C(=O)Nc3ccc(OCC)cc3)C4C2=O)CC1 (stereo unspecified)
label 0

Just wondering, is viability of O=C(NC1CCCC1)C(c1ccc(Cl)cc1)N1CCOCC1 (stereo unspecified) below 90%?
label 0

Report whether reported viability is lower than 90% (strictly) for COc1ccc(NC(=O)c2ccc(CN3CCN(c4ccccc4)CC3)cc2)cc1
label 1

Please check: viability for Cc1onc(-c2ccccc2Cl)c1C(=O)OCn1nnc2ccccc2c1=O , strictly under 90% or not?
label 1

* * *

Assay: growth suppression of beta-catenin knockout HCT116, pilot screen, human colon tumor cells (AID 823);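 note: 0% = wells killed by 20 µM Hyamine and 100% = untreated DMSO cell wells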
Conditions: CellTiter-Glo, 60 h, at 10 µM, stronger effect = lower value
Results filed as inconclusive are left out.
For each record, write down the corresponding viability.
All answers are understood in %, so give the number only.

Lab note: CCN1C(=O)c2ccccc2Sc2ccc(C(=O)NCCN3CCOCC3)cc21 gave viability of 110

Looking up Cn1c(=O)[nH]c(=O)c2c1nc(N1CCCCCC1)n2CCSc1nc2ccccc2o1 , I see its viability listed as 95.4

Entry COc1ccc(C(=O)Nc2ccc(Cl)cc2C(=O)NCc2ccco2)cc1OC ; viability = 73.4

Sample O=C(CC12CC3CC(CC(C3)C1)C2)NCO ; viability observed: 100

Field viability (entry O=C(NCCN1CCOCC1)NC1(C(F)(F)F)Oc2ccccc2O1 ) reads 76.3

molecule O=C(O)CCSc1nnc(-c2ccccc2)n1-c1ccccc1 , viability observed: 94.4

* * *

Assay: inhibitors of the yeast RAM network, pilot screen, dse1pr::URA3 reporter, 5-FOA selection (AID 869);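 note: 0% = DMSO wells with no growth and 100% = 10 µM 1-NA-PP1 with full growth; RAM network block rescues cells from 5-FOA so hits raise OD615 growth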
Settings: S. cerevisiae dse1pr::URA3 5-FOA growth, OD615, 2 d; at 10 µM; stronger effect = higher value; strain carries analog-sensitive mutant Cbk1 kinase
Exercise: state measured inhibition for each of the compounds provided.
Kindly answer with a numeric value in %, unit omitted.

Field inhibition (entry Cc1ccc(N2C(=O)C(Cl)=C(NCCO)C2=O)c(C)c1 ) reads 2.02

Lab book: inhibition of Cc1ccc(S(=O)(=O)N2CCC(C(=O)N[C@@H](C)C(=O)NC3CCCCC3)CC2)cc1 noted as 2.49

Consider CCN1CCN(Cc2ccc(NC(=O)Nc3ccccc3OC)cc2)CC1 . Its measured inhibition is 0.235

The measured inhibition associated with Cc1csc(NC(=O)C(CC(C)C)NS(=O)(=O)c2ccc3c(c2)oc(=O)n3C)n1 (stereo not given) reads 1.33

Sample Cc1ccn2cc(CCNC(=O)c3ccc(Br)o3)nc2c1 ; inhibition observed: 3.01

Note to self: inhibition recorded for CC(C)NC(=O)C1(O)c2ccccc2NC(=O)N1c1ccc(Cl)c(Cl)c1 (stereo not given) was 0.375

For this compound ( Cc1cccc(C(=O)Nc2cc(=O)n(C)c(=O)n2C)c1 ), measured inhibition is 0.905

Per the record, Cc1ccsc1-c1nc(CSCC(=O)N2CCN(c3ccccc3)CC2)c(C)o1 has inhibition of 0.75

Reported inhibition ( COc1ccc(F)cc1S(=O)(=O)Nc1ccc2c(c1)OCCO2 ) = 2.45

// COc1ccc(C2NC(=O)NC(O)(C(F)(F)F)C2C(=O)c2ccc(C)cc2)cc1 (stereo not given) : inhibition value = 0.56
